The reported measurements were obtained from the supplement of paper PMC10065799.

Quick reference for phosphorylation enrichment among some sequences
- Tested on: c-Src
- assay-name: phosphorylation enrichment, bacterial display (enrichment ratio); higher = better substrate or ligand; peptides without Tyr show the background;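 note: 11-residue human phosphosite peptides and single-mutation variants displayed on the E. coli surface, counted by deep sequencing, each peptide's frequency after selection divided by its frequency in the unselected input library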;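 note: frequency after pTyr selection over input frequency; kinase dosed for 20-30% of maximal phosphorylation in three min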
Number, no unit, nothing else.

>  <seq-text>
RAILNYIASKY [GSTA3_Y74]

>  <val>
0.81

$$$$
>  <seq-text>
MSNVPYVMNRG [ACAT1_Y161]

>  <val>
0.478

$$$$
>  <seq-text>
SEDSEYYRAFE [CASQ2_Y178_K180R]

>  <val>
0.824

$$$$

INPUT: I am curious: what phosphorylation enrichment value has been reported for WHHTFYNELRV [ACTA1_Y93] ?
OUTPUT: 0.546

INPUT: Here is the next sequence: EKLQKYYRKNP [EHHADH_Y682_Q685K]
OUTPUT: 0.482

INPUT: Here is the next sequence: IGLHAYGDQFR [IDH1_Y135_R132L_YF]
OUTPUT: 0.39

INPUT: Here is the next sequence: IRTIDYRYTVW [IDS_Y497]
OUTPUT: 0.398

INPUT: Here is the next sequence: REAMEYLESKQ [BTK_Y511_C506R]
OUTPUT: 0.701

INPUT: Here is the next sequence: CPTIHYNFMCN [TP53_Y234_T230P_YF]
OUTPUT: 0.603

INPUT: Here is the next sequence: FPRAWCRRSIA [KIAA1109_Y4272_Y4272C]
OUTPUT: 0.523

INPUT: Here is the next sequence: ASIVDYNIIGW [MYH7_Y588_G584S]
OUTPUT: 0.514

###

- subject-of-test: EPHB1 (UniProt P54762)
- Sequence (P54762 whole entry, looked up): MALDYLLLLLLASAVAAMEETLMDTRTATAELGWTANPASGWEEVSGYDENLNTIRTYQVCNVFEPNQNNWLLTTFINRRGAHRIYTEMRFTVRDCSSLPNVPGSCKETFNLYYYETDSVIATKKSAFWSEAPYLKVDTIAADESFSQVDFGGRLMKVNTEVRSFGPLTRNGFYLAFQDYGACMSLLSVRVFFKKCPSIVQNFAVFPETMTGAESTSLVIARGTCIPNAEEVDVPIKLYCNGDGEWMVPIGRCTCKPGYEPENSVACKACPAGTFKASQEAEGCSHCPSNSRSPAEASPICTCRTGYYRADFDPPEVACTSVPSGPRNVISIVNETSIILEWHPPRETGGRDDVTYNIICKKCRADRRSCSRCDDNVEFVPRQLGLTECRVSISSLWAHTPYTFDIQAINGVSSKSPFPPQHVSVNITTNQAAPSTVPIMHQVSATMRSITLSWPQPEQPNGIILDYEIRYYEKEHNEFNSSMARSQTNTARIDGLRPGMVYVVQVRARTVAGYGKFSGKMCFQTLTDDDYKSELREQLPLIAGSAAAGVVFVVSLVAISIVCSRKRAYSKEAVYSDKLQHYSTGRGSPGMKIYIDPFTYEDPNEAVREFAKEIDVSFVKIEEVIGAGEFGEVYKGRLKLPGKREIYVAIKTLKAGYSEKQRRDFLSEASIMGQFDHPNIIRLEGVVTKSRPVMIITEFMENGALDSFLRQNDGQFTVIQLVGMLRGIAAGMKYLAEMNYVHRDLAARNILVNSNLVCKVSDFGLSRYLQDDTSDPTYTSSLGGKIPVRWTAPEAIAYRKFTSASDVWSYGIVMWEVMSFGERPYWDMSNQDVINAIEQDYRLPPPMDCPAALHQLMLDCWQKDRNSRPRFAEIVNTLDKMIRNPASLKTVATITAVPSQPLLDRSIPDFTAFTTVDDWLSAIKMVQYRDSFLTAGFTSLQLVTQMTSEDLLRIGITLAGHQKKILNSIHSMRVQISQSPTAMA
- assay-name: phosphorylation enrichment, bacterial display (enrichment ratio); higher = better substrate or ligand; peptides without Tyr show the background
Class field: derived from phosphorylation enrichment; ranges bucket A (below 0.5), bucket B (0.5 to below 0.7), bucket C (0.7 or more)

Examples with answers:
>  <seq-text>
IALSKYGRVKR [FGF6_Y186]

>  <subject-of-test>
EPHB1 (UniProt P54762)

>  <discrete-label>
bucket A

$$$$
>  <seq-text>
CEETFYTMKMN [MASP2_Y401_V405M]

>  <subject-of-test>
EPHB1 (UniProt P54762)

>  <discrete-label>
bucket C

$$$$
>  <seq-text>
YNNYGYGNDGF [HNRNPH3_Y161]

>  <subject-of-test>
EPHB1 (UniProt P54762)

>  <discrete-label>
bucket C

$$$$
>  <seq-text>
EGWQVYRLGTR [MISP_Y95_A99T]

>  <subject-of-test>
EPHB1 (UniProt P54762)

>  <discrete-label>
bucket A

$$$$

INPUT: Field: class (phosphorylation enrichment) — entry: KLADMYGGGKD [CDH1_Y876_E880K]
OUTPUT: bucket A

INPUT: Here is the next sequence: MTYVFYRENLR [NLRP14_Y443]
OUTPUT: bucket C

INPUT: Here is the next sequence: LLINKYGLSDH [SCP2_Y151_A155D]
OUTPUT: bucket B

INPUT: Here is the next sequence: QMVGMYASSYM [AVPR2_Y124]
OUTPUT: bucket C

INPUT: Here is the next sequence: QPGDIYHQTWA [GBA_Y244]
OUTPUT: bucket C

INPUT: Here is the next sequence: ENEGTYVCIAA [ADAMTSL3_Y1365_T1370A]
OUTPUT: bucket C

INPUT: Here is the next sequence: SAPDSYIGIGN [SLC38A4_Y27]
OUTPUT: bucket A

INPUT: Here is the next sequence: AGADGYGFLAP [FOXL2_Y186_YF]
OUTPUT: bucket A

INPUT: Here is the next sequence: EEAAGCAQESQ [CAMKV_Y491_Y491C]
OUTPUT: bucket B

INPUT: Here is the next sequence: NGPDVYVLPVT [AATK_Y93_L97V]
OUTPUT: bucket C

INPUT: Here is the next sequence: GMAHNYRNSSQ [AASS_Y188]
OUTPUT: bucket A

INPUT: Here is the next sequence: TSSAVYMNLAS [GATAD2B_Y317_I316V]
OUTPUT: bucket C

INPUT: Here is the next sequence: ISSLLYELLEE [TRPC6_Y896_R895L]
OUTPUT: bucket C

INPUT: Here is the next sequence: IKRIAYEFVEM [ADA_Y84]
OUTPUT: bucket A

INPUT: Here is the next sequence: CNPLCYPTIMI [OR6K6_Y160_R159C]
OUTPUT: bucket B

INPUT: Here is the next sequence: EFLKNYFTDKA [DSG2_Y775_R773K]
OUTPUT: bucket B

INPUT: Here is the next sequence: AAALAYGLDKS [HSPA9_Y230]
OUTPUT: bucket A

INPUT: Here is the next sequence: LTPVKYLLSAT [GSDMC_Y26]
OUTPUT: bucket B

INPUT: Here is the next sequence: SILTVYSKDNF [PANK2_Y400_A398T_YF]
OUTPUT: bucket B

INPUT: Here is the next sequence: TSKLSYLDPRI [TOP1_Y723_N722S]
OUTPUT: bucket B

INPUT: Here is the next sequence: SLESAYPEGSQ [TTF1_Y357]
OUTPUT: bucket A

INPUT: Here is the next sequence: SEDANYMRVSC [TTC3_Y1288_K1289M]
OUTPUT: bucket C
